As shown below, each of these compounds has a reported pIC50 value.
study_system: Nav 1.7 (Homo sapiens (Human))
assay_name: in-vitro Nav 1.7 PX (IC50)
Assay type: cell-based
measurement_context: in-vitro Nav 1.7 PX data
By convention, pIC50 is the negative base-10 log of a molar concentration.

compound: COc1cc(-c2ccc(F)c(F)c2)c(F)cc1-n1c(=O)ccc2cc(S(=O)(=O)Nc3ncc(F)cn3)ccc21 [Example 937]
value_measured: 7.54
--
compound: COc1cc(-c2cccc(C(F)(F)F)c2)c(F)cc1-n1c(=O)ccc2cc(S(=O)(=O)Nc3ccon3)c(F)cc21 [Example 980]
value_measured: 7.66
--
compound: COc1ccc(-c2cc(F)cc(Cl)c2)cc1-n1c(=O)ccc2cc(S(=O)(=O)Nc3cccnn3)ccc21 [Example 902]
value_measured: 7.11
--
compound: COc1cc(-c2cc(F)cc(Cl)c2)c(F)cc1-n1c(=O)ccc2cc(S(=O)(=O)Nc3ccnc(C)n3)ccc21 [Example 934]
value_measured: 8.22
--
compound: COc1cc(-c2ccc(F)c(F)c2)c(F)cc1-n1c(=O)ccc2cc(S(=O)(=O)Nc3cc(C)ncn3)ccc21 [Example 938]
value_measured: 7.33

(Q) Request the reported pIC50 associated with COc1cc(-c2cc(OC)c(-n3c(=O)ccc4cc(S(=O)(=O)Nc5ccon5)ccc43)cc2F)ccc1C#N [Example 720]
(A) 7.27

(Q) Request the reported pIC50 associated with COc1cc(C#CC2CC2)c(F)cc1-n1c(=O)ccc2cc(S(=O)(=O)Nc3ccon3)ccc21 [Example 1130]
(A) 6.68

(Q) Request the reported pIC50 associated with COc1cc(-c2ccc(F)c(C#N)c2)ccc1-n1c(=O)ccc2cc(S(=O)(=O)Nc3ccon3)ccc21 [Example 1020]
(A) 7.09

(Q) Request the reported pIC50 associated with COc1cc(-c2ccc(OC(F)(F)F)cc2)c(F)cc1-n1c(=O)ccc2cc(S(=O)(=O)Nc3ccon3)ccc21 [Example 760]
(A) 7.82

(Q) Request the reported pIC50 associated with COc1cc(-c2ccc(Cl)c(C)c2)c(F)cc1-n1c(=O)ccc2cc(S(=O)(=O)Nc3ncco3)ccc21 (atropisomer, axis not shown; (P)) [Example 694]
(A) 7.57

(Q) Request the reported pIC50 associated with COc1cc(-c2ccc(F)cc2)c(F)cc1-n1c(=O)ccc2cc(S(=O)(=O)Nc3cc(C)ncn3)ccc21 [Example 772]
(A) 6.63

(Q) Request the reported pIC50 associated with COc1cc(-c2cc(F)cc(Cl)c2)c(F)cc1-n1c(=O)ccc2cc(S(=O)(=O)Nc3ccsn3)ccc21 [Example 921]
(A) 7.43

(Q) Request the reported pIC50 associated with COc1cc(-c2ccc(Cl)c(C)c2)ccc1-n1c(=O)ccc2cc(S(=O)(=O)Nc3cnccn3)ccc21 [Example 659]
(A) 7.46

(Q) Request the reported pIC50 associated with COc1cc(F)cc(-c2ccc(-n3c(=O)ccc4cc(S(=O)(=O)Nc5cccnn5)ccc43)c(OC)c2)c1 [Example 997]
(A) 7.18

* * *

study_system: UniProtKB Q15858
assay_name: in-vitro Nav 1.7 PX (IC50)
Assay type: cell-based
measurement_context: in-vitro Nav 1.7 PX data
measured_metric: IC50 (nM)
Give your result in nM as a bare value.

compound: COc1cc(-c2cc(OC)c(-n3c(=O)ccc4cc(S(=O)(=O)Nc5ccon5)ccc43)cc2F)ccc1Cl [Example 700]
measured_metric: IC50
unit_info: nM
value_measured: 5

(Q) Write down the reported IC50 of COc1cc(-c2cccc(C(F)(F)F)c2)c(F)cc1-n1c(=O)ccc2cc(S(=O)(=O)Nc3ccnc(C)n3)ccc21 [Example 804] , test system: UniProtKB Q15858.
(A) 14

(Q) Write down the reported IC50 of COc1cc(-c2cccc(OC(C)C)c2)ccc1-n1c(=O)ccc2cc(S(=O)(=O)Nc3ncco3)ccc21 [Example 826] , test system: UniProtKB Q15858.
(A) 140

(Q) Write down the reported IC50 of COc1cc(-c2ccc(Cl)c(C)c2)c(F)cc1-n1c(=O)ccc2cc(S(=O)(=O)Nc3cscn3)ccc21 [Example 932] , test system: UniProtKB Q15858.
(A) 78

(Q) Write down the reported IC50 of COc1cc(-c2cccc(C)c2)ccc1-n1c(=O)ccc2cc(S(=O)(=O)Nc3cccnn3)ccc21 [Example 1120] , test system: UniProtKB Q15858.
(A) 108

(Q) Write down the reported IC50 of COc1ccc(-c2ccc(F)c(F)c2)cc1-n1c(=O)ccc2cc(S(=O)(=O)Nc3ccon3)ccc21 [Example 839] , test system: UniProtKB Q15858.
(A) 113

(Q) Write down the reported IC50 of COc1cc(-c2ccc(C)cc2Cl)c(F)cc1-n1c(=O)ccc2cc(S(=O)(=O)Nc3ccon3)ccc21 [Example 725] , test system: UniProtKB Q15858.
(A) 12

* * *

study_system: UniProt Q15858
assay_name: in-vitro Nav 1.7 PX (IC50)
Type: cell-based
measurement_context: in-vitro Nav 1.7 PX data
IC50 strictly under 0.05 µM means Criterion met; at 0.05 µM or over means Criterion not met.

Before answering, review these 4 worked examples.
compound: COc1cc(-c2cnc(F)c(C)c2)c(F)cc1-n1c(=O)ccc2cc(S(=O)(=O)Nc3ccon3)ccc21 [Example 722]
study_system: UniProt Q15858
group: Criterion not met
--
compound: COc1ccc(-c2ccccc2F)cc1-n1c(=O)ccc2cc(S(=O)(=O)Nc3ccon3)ccc21 [Example 836]
study_system: UniProt Q15858
group: Criterion not met
--
compound: COc1cc(-c2cc(Cl)cnc2OC)c(F)cc1-n1c(=O)ccc2cc(S(=O)(=O)Nc3ncco3)ccc21 [Example 776]
study_system: UniProt Q15858
group: Criterion not met
--
compound: COc1cc(-c2ccc(OC(F)F)cc2)c(F)cc1-n1c(=O)ccc2cc(S(=O)(=O)Nc3ccon3)ccc21 [Example 763]
study_system: UniProt Q15858
group: Criterion met

(Q) I wonder whether COc1cc(-c2cccc(C(F)(F)F)c2)c(F)cc1-n1c(=O)ccc2cc(S(=O)(=O)Nc3ncco3)ccc21 [Example 806] has IC50 below 0.05 µM. Can you tell?
(A) Criterion met

(Q) I wonder whether COc1cc(-c2ccnc(C(F)(F)F)c2)c(F)cc1-n1c(=O)ccc2cc(S(=O)(=O)Nc3ccon3)ccc21 [Example 762] has IC50 below 0.05 µM. Can you tell?
(A) Criterion met

(Q) I wonder whether COc1cc(-c2cc(OC)c(-n3c(=O)ccc4cc(S(=O)(=O)Nc5ncc(F)cn5)ccc43)cc2F)ccc1F [Example 1010] has IC50 below 0.05 µM. Can you tell?
(A) Criterion not met

(Q) I wonder whether COc1cc(-c2cccc(OC(C)C)c2)ccc1-n1c(=O)ccc2cc(S(=O)(=O)Nc3ccon3)ccc21 [Example 780] has IC50 below 0.05 µM. Can you tell?
(A) Criterion met

(Q) I wonder whether COc1ccc(-c2cc(C)cc(Cl)c2)cc1-n1c(=O)ccc2cc(S(=O)(=O)Nc3ccon3)ccc21 [Example 867] has IC50 below 0.05 µM. Can you tell?
(A) Criterion met

(Q) I wonder whether COc1cc(-c2ccc(Cl)c(C)c2)c(F)cc1-n1c(=O)ccc2cc(S(=O)(=O)Nc3ncns3)ccc21 [Example 1075] has IC50 below 0.05 µM. Can you tell?
(A) Criterion met

(Q) I wonder whether COc1cc(-c2ccncc2Cl)c(F)cc1-n1c(=O)ccc2cc(S(=O)(=O)Nc3ccon3)ccc21 [Example 748] has IC50 below 0.05 µM. Can you tell?
(A) Criterion not met

(Q) I wonder whether CCOc1cccc(-c2ccc(-n3c(=O)ccc4cc(S(=O)(=O)Nc5ccon5)ccc43)c(OC)c2)c1 [631/779] has IC50 below 0.05 µM. Can you tell?
(A) Criterion met

(Q) I wonder whether COc1cc(-c2ccc(C#N)cc2)c(F)cc1-n1c(=O)ccc2cc(S(=O)(=O)Nc3ccon3)ccc21 [Example 754] has IC50 below 0.05 µM. Can you tell?
(A) Criterion not met

(Q) I wonder whether COc1cc(-c2cccc(C(F)(F)F)c2)ccc1-n1c(=O)ccc2cc(S(=O)(=O)Nc3ccncn3)ccc21 (atropisomer, axis not shown; (P)) [Example 671] has IC50 below 0.05 µM. Can you tell?
(A) Criterion met

* * *

As shown below, each of these compounds has a reported pIC50 value.
study_system: Nav 1.7 (Homo sapiens (Human), UniProt Q15858)
Sequence (Q15858 whole entry): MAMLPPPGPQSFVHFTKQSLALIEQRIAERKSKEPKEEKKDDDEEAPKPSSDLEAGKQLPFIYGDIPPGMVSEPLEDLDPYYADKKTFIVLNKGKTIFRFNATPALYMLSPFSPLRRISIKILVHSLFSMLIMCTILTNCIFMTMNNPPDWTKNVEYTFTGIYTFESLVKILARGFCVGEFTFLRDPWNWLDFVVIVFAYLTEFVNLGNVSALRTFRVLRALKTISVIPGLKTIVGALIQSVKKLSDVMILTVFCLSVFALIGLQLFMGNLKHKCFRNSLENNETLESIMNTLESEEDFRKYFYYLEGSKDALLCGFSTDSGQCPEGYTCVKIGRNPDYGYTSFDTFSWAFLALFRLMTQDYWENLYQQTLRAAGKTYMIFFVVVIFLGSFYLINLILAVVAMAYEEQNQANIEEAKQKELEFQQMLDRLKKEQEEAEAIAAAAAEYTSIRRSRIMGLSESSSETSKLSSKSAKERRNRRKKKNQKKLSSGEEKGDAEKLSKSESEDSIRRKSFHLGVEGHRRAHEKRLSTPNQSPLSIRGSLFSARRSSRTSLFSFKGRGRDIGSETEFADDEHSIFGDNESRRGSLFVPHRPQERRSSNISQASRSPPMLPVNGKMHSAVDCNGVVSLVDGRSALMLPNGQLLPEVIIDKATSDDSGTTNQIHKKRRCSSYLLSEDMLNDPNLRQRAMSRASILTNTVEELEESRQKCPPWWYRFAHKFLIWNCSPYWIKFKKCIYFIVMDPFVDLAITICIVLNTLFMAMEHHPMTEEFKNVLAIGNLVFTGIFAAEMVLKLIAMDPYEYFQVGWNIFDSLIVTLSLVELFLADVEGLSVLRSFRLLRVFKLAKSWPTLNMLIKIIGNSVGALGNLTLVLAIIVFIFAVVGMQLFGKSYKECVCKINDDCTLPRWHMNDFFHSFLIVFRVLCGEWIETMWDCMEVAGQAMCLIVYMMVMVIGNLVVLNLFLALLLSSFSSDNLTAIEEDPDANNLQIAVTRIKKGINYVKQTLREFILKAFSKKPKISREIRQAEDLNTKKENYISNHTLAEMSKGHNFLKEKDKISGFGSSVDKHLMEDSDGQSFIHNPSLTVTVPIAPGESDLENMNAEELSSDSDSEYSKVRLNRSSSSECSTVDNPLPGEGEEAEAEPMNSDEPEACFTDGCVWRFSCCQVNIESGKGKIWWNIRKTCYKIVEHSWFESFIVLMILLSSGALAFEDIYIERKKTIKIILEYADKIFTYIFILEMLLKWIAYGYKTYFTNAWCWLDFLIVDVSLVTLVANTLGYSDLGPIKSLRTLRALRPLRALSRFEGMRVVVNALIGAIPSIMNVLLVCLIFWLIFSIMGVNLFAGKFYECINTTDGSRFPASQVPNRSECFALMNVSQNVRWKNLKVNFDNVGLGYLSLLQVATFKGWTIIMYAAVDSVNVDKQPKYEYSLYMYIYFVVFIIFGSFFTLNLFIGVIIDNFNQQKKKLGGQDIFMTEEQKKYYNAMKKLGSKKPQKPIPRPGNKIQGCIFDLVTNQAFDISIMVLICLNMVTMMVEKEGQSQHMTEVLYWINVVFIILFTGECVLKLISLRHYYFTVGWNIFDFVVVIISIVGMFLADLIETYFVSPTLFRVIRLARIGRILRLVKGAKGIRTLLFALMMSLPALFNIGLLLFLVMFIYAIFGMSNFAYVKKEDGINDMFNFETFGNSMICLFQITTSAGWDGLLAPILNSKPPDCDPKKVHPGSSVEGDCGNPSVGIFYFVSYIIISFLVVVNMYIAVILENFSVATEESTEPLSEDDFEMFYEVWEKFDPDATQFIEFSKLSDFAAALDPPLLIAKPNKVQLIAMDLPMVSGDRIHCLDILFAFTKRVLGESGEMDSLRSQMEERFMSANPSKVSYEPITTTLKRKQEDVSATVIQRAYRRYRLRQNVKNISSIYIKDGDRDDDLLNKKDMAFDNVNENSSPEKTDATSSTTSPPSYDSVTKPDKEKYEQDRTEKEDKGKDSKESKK
assay_name: in-vitro Nav 1.7 PX (IC50)
Format: cell-based
measurement_context: in-vitro Nav 1.7 PX data
By convention, pIC50 is the negative base-10 log of a molar concentration.

Consider the worked cases shown below.
smiles_notation: COc1cc(F)cc(-c2cc(OC)c(-n3c(=O)ccc4cc(S(=O)(=O)Nc5ncccn5)ccc43)cc2C)c1
measured_metric: pIC50
value_measured: 7.64
//
smiles_notation: COc1cc(-c2cccc(C(F)(F)F)n2)c(F)cc1-n1c(=O)ccc2cc(S(=O)(=O)Nc3ccon3)ccc21
measured_metric: pIC50
value_measured: 7.02
//
smiles_notation: COc1cc(-c2ccc(C)c(F)c2)c(F)cc1-n1c(=O)ccc2cc(S(=O)(=O)Nc3ncc(F)cn3)ccc21
measured_metric: pIC50
value_measured: 7.47
//
smiles_notation: COc1ccc(-c2cc(OC)c(-n3c(=O)ccc4cc(S(=O)(=O)Nc5ccon5)ccc43)cc2F)cc1
measured_metric: pIC50
value_measured: 7.15

(Q) Request the reported pIC50 associated with `COc1cc(-c2cccc(OC)c2F)ccc1-n1c(=O)ccc2cc(S(=O)(=O)Nc3ccon3)ccc21`
(A) 7.18

(Q) Request the reported pIC50 associated with `COc1cc(Cl)cc(-c2cc(OC)c(-n3c(=O)ccc4cc(S(=O)(=O)Nc5ncc(F)cn5)ccc43)cc2F)c1`
(A) 7.64

(Q) Request the reported pIC50 associated with `COc1nc(OC2CCCC2)c(Cl)cc1-n1c(=O)ccc2cc(S(=O)(=O)Nc3ccon3)ccc21`
(A) 6.48
